- Tested on: S. pneumoniae D39V;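 further: first quartile when negative (synergy) and third quartile when positive (antagonism)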
- assay: Bliss interaction score (quartile over a dose matrix) (fitness difference); higher = more antagonism (negative = synergy)
endpoint label: Bliss interaction score
Please state the value as a number alone, without comment.

Worked set:
compound="COc1ccc(C[C@H](N)C(=O)N[C@H]2[C@@H](O)[C@H](n3cnc4c(N(C)C)ncnc43)O[C@@H]2CO)cc1 [Puromycin] + CO[C@H]1/C=C/O[C@@]2(C)Oc3c(C)c(O)c4c(O)c(c(/C=N/N5CCN(C)CC5)c(O)c4c3C2=O)NC(=O)/C(C)=C\\C=C\\[C@H](C)[C@H](O)[C@@H](C)[C@@H](O)[C@@H](C)[C@H](OC(C)=O)[C@@H]1C [Rifampicin]" value=-0.0708
compound="C[C@@H]1O[C@@H]1P(=O)(O)O [Fosfomycin] + Cn1nnc(-c2ccc(-c3ccc(N4C[C@H](CO)OC4=O)cc3F)cn2)n1 [Tedizolid]" value=0.0919
compound="CO/N=C(\\C(=O)N[C@@H]1C(=O)N2C(C(=O)O)=C(COC(N)=O)CS[C@H]12)c1ccco1 [Cefuroxime] + CC[C@H]1OC(=O)[C@H](C)[C@@H](O[C@H]2C[C@@](C)(OC)[C@@H](O)[C@H](C)O2)[C@H](C)[C@@H](O[C@@H]2O[C@H](C)C[C@H](N(C)C)[C@H]2O)[C@](C)(O)C[C@@H](C)C(=O)[C@H](C)[C@@H](O)[C@]1(C)O [Erythromycin]" value=0.0365

Consider the record given below.
Summary for this compound, O=C(O)c1cn(C2CC2)c2cc(N3CCNCC3)c(F)cc2c1=O [Ciprofloxacin] + CN(N=O)C(=O)N[C@@H](C=O)[C@@H](O)[C@H](O)[C@H](O)CO [Streptozotocin] : Bliss interaction score is -0.0511
